Target: T1, interleukin-23 receptor (IL-23R), Q5VWK5
T1 chain: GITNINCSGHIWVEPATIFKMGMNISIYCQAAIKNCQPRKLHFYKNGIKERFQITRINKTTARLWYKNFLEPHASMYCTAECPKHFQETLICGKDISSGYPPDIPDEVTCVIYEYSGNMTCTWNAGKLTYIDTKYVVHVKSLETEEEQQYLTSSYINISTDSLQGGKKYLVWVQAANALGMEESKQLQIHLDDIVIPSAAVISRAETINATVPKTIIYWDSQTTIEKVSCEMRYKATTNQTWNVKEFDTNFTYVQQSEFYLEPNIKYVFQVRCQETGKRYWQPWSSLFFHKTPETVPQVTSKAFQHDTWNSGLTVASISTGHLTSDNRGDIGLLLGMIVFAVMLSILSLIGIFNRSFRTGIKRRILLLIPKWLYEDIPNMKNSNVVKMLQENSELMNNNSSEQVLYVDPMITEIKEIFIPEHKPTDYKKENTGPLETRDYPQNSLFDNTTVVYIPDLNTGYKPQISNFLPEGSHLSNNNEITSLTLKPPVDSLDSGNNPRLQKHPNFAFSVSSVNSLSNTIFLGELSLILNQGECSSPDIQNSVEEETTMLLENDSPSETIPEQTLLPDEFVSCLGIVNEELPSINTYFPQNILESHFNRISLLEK
Test: cell-based or functional assay
Positions of bridges follow the written chain, without caps; N, C: chain ends. Non-standard residues stand in square brackets, D forms with d. No end group written: not given here. 2Nal(6-OH) = N[C@@H](Cc1ccc2cc(O)ccc2c1)C(=O)O; Trp(7-Me) = Cc1cccc2c(C[C@H](N)C(=O)O)c[nH]c12; AEF = NCCOc1ccc(C[C@H](N)C(=O)O)cc1; 3Pal = N[C@@H](Cc1cccnc1)C(=O)O; Pen = CC(C)(S)[C@H](N)C(=O)O; Thp = NC1(C(=O)O)CCOCC1; Sar = CNCC(=O)O
Provide the reported PBMC pSTAT3 IC50 of each item.

R[Pen]ET[Trp(7-Me)]K(Ac)[Pen][2‑amino‑3‑(4-(2-aminoethoxy)phenyl)propanoic acid][2‑amino‑3‑(6-hydroxynaphthalen-2-yl)propanoic acid][Thp]EN[3Pal][Sar]K (disulfide 2-7 (inferred); ends not checked; also: Lys15: lipidated lysine, lipid not given here) [SEQ ID NO: 147] | < 1 nM

Could you now look at the following binder, please?
Exam item: Fill blank: measured PBMC pSTAT3 IC50 of the binder [Pen]NT[Trp(7-Me)]K[Pen][AEF][2Nal(6-OH)][Thp]K(Ac)N[3Pal][Sar] (disulfide 1-6 (inferred); not fully specified (residue 5); ends not checked; also: K5: lipidated lysine, lipid not given here) [SEQ ID NO: 96] is ____.
Marked response: < 0.1 nM
